pIC50: −log10 of the molar value.
Collected from the literature: pIC50 of various compounds toward Serine/threonine-protein kinase B-raf (Homo sapiens, UniProt P15056).

{"compound": "CC(F)(F)c1ccc(F)c(NC(=O)Nc2ccc(Oc3ccnc(NC(=O)C4CC4)c3)c(F)c2)c1", "targetOrTestSystem": "Serine/threonine-protein kinase B-raf (Homo sapiens, UniProt P15056)", "experimentalEndpoint": "pIC50", "assayResult": 8.32}
{"compound": "N#Cc1ccnc2[nH]cc(C(=O)c3c(F)ccc(NS(=O)(=O)C4CCC4)c3F)c12", "targetOrTestSystem": "Serine/threonine-protein kinase B-raf (Homo sapiens, UniProt P15056)", "experimentalEndpoint": "pIC50", "assayResult": "≥ 5.00"}
{"compound": "CCCS(=O)(=O)Nc1ccc(F)c(C(=O)c2c[nH]c3ncc(CN4CCOCC4)cc23)c1F", "targetOrTestSystem": "Serine/threonine-protein kinase B-raf (Homo sapiens, UniProt P15056)", "experimentalEndpoint": "pIC50", "assayResult": "≥ 5.00"}
{"compound": "Nc1nccc(-c2sc(C3COCCN3)nc2-c2cc(Cl)cc(NS(=O)(=O)c3cc(F)ccc3F)c2F)n1 (centres unmarked)", "targetOrTestSystem": "Serine/threonine-protein kinase B-raf (Homo sapiens, UniProt P15056)", "experimentalEndpoint": "pIC50", "assayResult": "> 8.00"}
{"compound": "COc1cc2ncnc(Nc3ccc(NC(=O)Nc4ccc(Cl)c(C(F)(F)F)c4)c(Cl)c3)c2c2c1OCCO2", "targetOrTestSystem": "Serine/threonine-protein kinase B-raf (Homo sapiens, UniProt P15056)", "experimentalEndpoint": "pIC50", "assayResult": "6.30 to 6.70"}
{"compound": "N#Cc1ccnc2[nH]cc(C(=O)c3c(F)ccc(NS(=O)(=O)c4ccc(F)cc4)c3F)c12", "targetOrTestSystem": "Serine/threonine-protein kinase B-raf (Homo sapiens, UniProt P15056)", "experimentalEndpoint": "pIC50", "assayResult": "≥ 5.00"}
{"compound": "O=C(Nc1ccc(Oc2ccnc(NC(=O)C3CC3)c2)cc1)Nc1cccc(OC(F)(F)F)c1", "targetOrTestSystem": "Serine/threonine-protein kinase B-raf (Homo sapiens, UniProt P15056)", "experimentalEndpoint": "pIC50", "assayResult": 7.85}

Moving on to another compound below.
Ask | Please provide the recorded pIC50 for O=C(c1c(F)ccc(NS(=O)(=O)CC(F)(F)F)c1F)c1c[nH]c2nccc(Cl)c12 , tested on Serine/threonine-protein kinase B-raf (Homo sapiens, UniProt P15056).
Reply | ≥ 5.00

* * *

Collected from the literature: IC50 of various molecules toward Serine/threonine-protein kinase B-raf (Homo sapiens, UniProt P15056).

Example entries begin here.
{"smi": "COc1cnc2[nH]cc(C(=O)c3c(F)ccc(NS(=O)(=O)C(C)C)c3F)c2c1", "IC50": "≤ 10 µM"}
{"smi": "CCCS(=O)(=O)Nc1ccc(F)c(C(=O)c2c[nH]c3ncc(/C=C/C(=O)OC)cc23)c1F", "IC50": "≤ 10 µM"}

Ask | Please provide the recorded IC50 for CCCS(=O)(=O)Nc1ccc(F)c(C(=O)c2c[nH]c3ncc(-c4cnc(SC)nc4)cc23)c1F , tested on Serine/threonine-protein kinase B-raf (Homo sapiens, UniProt P15056).
Reply | ≤ 10 µM

Ask | Please provide the recorded IC50 for CCCS(=O)(=O)Nc1ccc(F)c(C(=O)c2c[nH]c3ncc(-c4ccc(S(=O)(=O)C(C)C)cc4)cc23)c1F , tested on Serine/threonine-protein kinase B-raf (Homo sapiens, UniProt P15056).
Reply | ≤ 10 µM

Ask | Please provide the recorded IC50 for CCCS(=O)(=O)Nc1ccc(F)c(C(=O)c2c[nH]c3ncc(-c4ccc(C)nc4F)cc23)c1F , tested on Serine/threonine-protein kinase B-raf (Homo sapiens, UniProt P15056).
Reply | ≤ 10 µM

Ask | Please provide the recorded IC50 for CCCCS(=O)(=O)Nc1ccc(F)c(C(=O)c2c[nH]c3ncc(-c4cnn(C)c4)cc23)c1Cl , tested on Serine/threonine-protein kinase B-raf (Homo sapiens, UniProt P15056).
Reply | ≤ 10 µM

Ask | Please provide the recorded IC50 for COCCOc1cc2ncnc(Oc3ccc(NC(=O)Nc4cc(C(F)(F)F)ccc4F)cc3)c2c2c1OCCO2 , tested on Serine/threonine-protein kinase B-raf (Homo sapiens, UniProt P15056).
Reply | 0.2 to 0.5 µM

Ask | Please provide the recorded IC50 for COc1ccnc2[nH]cc(C(=O)c3c(F)ccc(NS(=O)(=O)c4cccc(F)c4)c3F)c12 , tested on Serine/threonine-protein kinase B-raf (Homo sapiens, UniProt P15056).
Reply | < 0.01 µM

Ask | Please provide the recorded IC50 for COCCOc1ccc(F)c(Cc2c[nH]c3ncc(Br)cc23)c1F , tested on Serine/threonine-protein kinase B-raf (Homo sapiens, UniProt P15056).
Reply | ≤ 10 µM

Ask | Please provide the recorded IC50 for O=C(Nc1ccc(Oc2ccnc(NC(=O)C3CC3)c2)cc1)Nc1ccc(Cl)c(C(F)(F)F)c1 , tested on Serine/threonine-protein kinase B-raf (Homo sapiens, UniProt P15056).
Reply | 0.0113 µM

* * *

Collected from the literature: IC50 of various compounds toward Serine/threonine-protein kinase B-raf (Homo sapiens).

{"smi": "O=C(Nc1ccc(Oc2ccnc(NC(=O)C3CC3)c2)nc1)Nc1cc(N2CCS(=O)(=O)CC2)cc(C(F)(F)F)c1", "IC50": "0.039 µM"}
{"smi": "COc1ncc(-c2cnc3[nH]cc(C(=O)c4c(F)ccc(NS(=O)(=O)CCC(F)(F)F)c4F)c3c2)cn1", "IC50": "≤ 10 µM"}

Moving on to another compound below.
Ask | Please provide the recorded IC50 for CCCS(=O)(=O)Nc1ccc(F)c(C(=O)c2c[nH]c3ncc(-c4ccc(O)nc4)cc23)c1F , tested on Serine/threonine-protein kinase B-raf (Homo sapiens).
Reply | < 0.01 µM
